Experiment: Cell Viability - LYMP2-010 (AID 981);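 note: cells exposed to compound for 24 hours at 37 °C; nearly all actives have a fitted effect of over 55% in size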
Settings: LYMP2-010 lymphoblastoid cell viability, qHTS; series mostly up to 92.2 µM
Inconclusive results are not listed. Calls of active or inactive are those of the source. Calls come from the whole dose curve; as a rule, active = well fitted cell-killing curve with a large enough effect; inconclusive = small, poorly fitted or top-dose-only effect; inactive = flat fitted curve, though single readings scatter.
Classes used: active, inactive

compound-structure: Oc1c(Br)cc(Br)cc1Br
category-label: inactive
//
compound-structure: C[C@@H]1C[C@@H]([C@H](O)CC2CC(=O)NC(=O)C2)C(=O)[C@@H](C)C1
category-label: active
//
compound-structure: CN(C)C(=S)SSC(=S)N(C)C
category-label: active
//
compound-structure: COC(=O)C1=C(C)NC(C)=C(C(=O)OC)C1c1ccccc1[N+](=O)[O-]
category-label: active
//
compound-structure: CC[n+]1c(-c2ccccc2)c2cc(N)ccc2c2ccc(N)cc21
category-label: active
//
compound-structure: O=C(CCl)c1ccc(Cl)cc1Cl
category-label: active
//
compound-structure: CCCCCCCCCCCC[N+](C)(C)CCOc1ccccc1
category-label: active
//
compound-structure: Oc1ccc(Cl)cc1Sc1cc(Cl)ccc1O
category-label: active

====

Experiment: Primary qHTS for inhibitors of nuclear receptor binding SET domain protein 2 (NSD2) in an RCH-ACV wild type WT cells (2C) (AID 1645877); note: nearly all actives have a fitted effect of over 70% in size; note: potency is the fitted concentration of half-maximal effect
Settings: RCH-ACV (leukaemia line) NSD2 WT (2C) viability, CellTiter-Glo, 72 h; series mostly up to 44.9 µM
Records with an inconclusive call do not appear. Active and inactive are the calls of the source. Calls follow the shape of the dose curve; as a rule, active = well fitted inhibition curve with a large enough effect; inconclusive = small, poorly fitted or top-dose-only effect; inactive = no such curve, though single readings can be large or run the other way.

compound: Cc1ccc([N+](=O)[O-])[c]2c1[O][Hg]2
Potency: 0.168 µM (active)
--
compound: CCC1(c2ccccc2)CCC(=O)NC1=O (configuration not stated)
Potency: inactive
--
compound: O=C(O)CCCCCCNC1c2ccccc2CCc2ccccc21
Potency: inactive
--
compound: O=C1NCN(c2ccccc2)C12CCN(CCCOc1ccc(F)cc1)CC2
Potency: 7.5 µM (active)
--
compound: CCC(OC(C)=O)C(CC(C)NC)(c1ccccc1)c1ccccc1 (configuration not stated)
Potency: 19.5 µM (active)
--
compound: NC(=O)OCCCc1ccccc1
Potency: inactive
--
compound: OC(O)C(Cl)(Cl)Cl
Potency: inactive
--
compound: c1ccc2nc(N3CCNCC3)ccc2c1
Potency: inactive
--
compound: O=C(CCCCl)c1ccc(F)cc1
Potency: inactive
--
compound: CN1C(=O)[C@@H](NC(=O)c2cc3ccccc3[nH]2)N=C(c2ccccc2)c2ccccc21
Potency: inactive
--
compound: Cc1ccc(N=CN(C)C=Nc2ccc(C)cc2C)c(C)c1
Potency: inactive
--
compound: C#C[C@]1(O)CC[C@H]2[C@@H]3CCC4=CC(=O)CCC4=C3C=C[C@@]21CC
Potency: inactive

====

Target: Nucleoprotein (Lymphocytic choriomeningitis virus (strain Armstrong)) (UniProt P09992)
Sequence (P09992 whole entry, looked up): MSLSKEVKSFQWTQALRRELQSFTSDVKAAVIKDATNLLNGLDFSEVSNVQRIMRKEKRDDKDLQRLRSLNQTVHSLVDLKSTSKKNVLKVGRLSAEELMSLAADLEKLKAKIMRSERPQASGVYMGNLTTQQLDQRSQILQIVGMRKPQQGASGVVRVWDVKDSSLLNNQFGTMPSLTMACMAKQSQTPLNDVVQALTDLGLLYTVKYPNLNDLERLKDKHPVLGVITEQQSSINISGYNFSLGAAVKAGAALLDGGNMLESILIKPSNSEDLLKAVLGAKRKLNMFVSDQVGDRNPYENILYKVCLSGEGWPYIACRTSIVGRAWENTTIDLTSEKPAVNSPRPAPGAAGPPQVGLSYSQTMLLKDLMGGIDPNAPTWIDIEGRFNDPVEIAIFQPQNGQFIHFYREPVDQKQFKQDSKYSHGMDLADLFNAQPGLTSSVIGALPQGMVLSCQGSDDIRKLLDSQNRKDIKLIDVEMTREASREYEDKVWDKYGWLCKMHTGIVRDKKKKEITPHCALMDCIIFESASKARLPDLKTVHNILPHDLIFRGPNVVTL
Assay: qHTS for Inhibitors of the Functional Ribonucleoprotein Complex (vRNP) of Lymphocytic Choriomeningitis Arenaviruses (LCMV): LCMV Primary Screen - GLuc reporter signal (AID 1347086); note: nearly all actives have a fitted effect of over 70% in size
Conditions: LCMV minigenome vRNP cell assay, Gaussia luciferase reporter; series mostly up to 57.5 µM
Inconclusive results are not listed. Active and inactive are the calls of the source. Calls follow the shape of the full dose curve. Square brackets hold non-standard residues; d marks the D form. Peptide text beside a SMILES is read from it. * marks the point of attachment. Sta = CC(C)C[C@H](N)[C@@H](O)CC(=O)O; Isovaleryl = CC(C)CC(=O)*
Outcomes: active, inactive

compound: CSc1ccc(C(=O)c2[nH]c(=O)[nH]c2C)cc1
target: Nucleoprotein (Lymphocytic choriomeningitis virus (strain Armstrong)) (UniProt P09992)
category-label: inactive
//
compound: CCCCC1C(=O)N(c2ccccc2)N(c2ccccc2)C1=O
target: Nucleoprotein (Lymphocytic choriomeningitis virus (strain Armstrong)) (UniProt P09992)
category-label: inactive
//
compound: CC[C@H]1C[C@@H]2C[C@H]3c4[nH]c5ccc(OC)cc5c4CCN(C2)[C@@H]13
target: Nucleoprotein (Lymphocytic choriomeningitis virus (strain Armstrong)) (UniProt P09992)
category-label: inactive
//
compound: OC[C@@H](O)[C@@H](O)[C@H](O)[C@H](O)CO
target: Nucleoprotein (Lymphocytic choriomeningitis virus (strain Armstrong)) (UniProt P09992)
category-label: inactive
//
compound: CCNC(=O)NCCCOc1cccc(CN2CCCCC2)c1
target: Nucleoprotein (Lymphocytic choriomeningitis virus (strain Armstrong)) (UniProt P09992)
category-label: inactive
//
compound: CCCCNc1ccc(C(=O)OCCN(C)C)cc1
target: Nucleoprotein (Lymphocytic choriomeningitis virus (strain Armstrong)) (UniProt P09992)
category-label: inactive
//
compound: CCOC(=O)Cn1cccc1-c1nc(-c2ccc(OC)cc2)c(-c2ccc(OC)cc2)s1
target: Nucleoprotein (Lymphocytic choriomeningitis virus (strain Armstrong)) (UniProt P09992)
category-label: inactive
//
compound: Nc1ccn(C2CO[C@H](CO)O2)c(=O)n1 (stereo partly specified)
target: Nucleoprotein (Lymphocytic choriomeningitis virus (strain Armstrong)) (UniProt P09992)
category-label: inactive
//
compound: c1cnc(N2CCN(Cc3ccc4c(c3)OCO4)CC2)nc1
target: Nucleoprotein (Lymphocytic choriomeningitis virus (strain Armstrong)) (UniProt P09992)
category-label: inactive
//
compound: O=C1c2ccccc2C(=O)C1c1ccc(Br)cc1
target: Nucleoprotein (Lymphocytic choriomeningitis virus (strain Armstrong)) (UniProt P09992)
category-label: inactive
//
compound: c1ccc([C@H]2CN3CCSC3=N2)cc1
target: Nucleoprotein (Lymphocytic choriomeningitis virus (strain Armstrong)) (UniProt P09992)
category-label: inactive
//
compound: CCN(CC)C(=O)N1CCN(C)CC1
target: Nucleoprotein (Lymphocytic choriomeningitis virus (strain Armstrong)) (UniProt P09992)
category-label: inactive
//
compound: CCCCCCCC/C=C\CCCCCCCCN
target: Nucleoprotein (Lymphocytic choriomeningitis virus (strain Armstrong)) (UniProt P09992)
category-label: inactive
//
compound: C#CCN(C)CCCOc1ccc(Cl)cc1Cl
target: Nucleoprotein (Lymphocytic choriomeningitis virus (strain Armstrong)) (UniProt P09992)
category-label: inactive
//
compound: Nc1ccccc1C(=O)OCC(O)CO (stereo unspecified)
target: Nucleoprotein (Lymphocytic choriomeningitis virus (strain Armstrong)) (UniProt P09992)
category-label: inactive
//
compound: CC[N+](CC)(CC(=O)Nc1c(C)cccc1C)Cc1ccccc1
target: Nucleoprotein (Lymphocytic choriomeningitis virus (strain Armstrong)) (UniProt P09992)
category-label: inactive
//
compound: CCN(CC)CCOc1ccc(/C(=C(\Cl)c2ccccc2)c2ccccc2)cc1
target: Nucleoprotein (Lymphocytic choriomeningitis virus (strain Armstrong)) (UniProt P09992)
category-label: inactive
//
compound: C[C@]12CC[C@H]3[C@@H](CCC4=CC(=O)CC[C@@H]43)[C@@H]1CC[C@@H]2O
target: Nucleoprotein (Lymphocytic choriomeningitis virus (strain Armstrong)) (UniProt P09992)
category-label: inactive
//
compound: NC1(c2ccc(-c3nc4ccn5c(=O)[nH]nc5c4cc3-c3ccccc3)cc2)CCC1
target: Nucleoprotein (Lymphocytic choriomeningitis virus (strain Armstrong)) (UniProt P09992)
category-label: active
//
compound: CC(C)CC(=O)N[C@H](C(=O)N[C@H](C(=O)N[C@@H](CC(C)C)[C@@H](O)CC(=O)N[C@@H](C)C(=O)N[C@@H](CC(C)C)[C@@H](O)CC(=O)O)C(C)C)C(C)C (Isovaleryl-VV[Sta]A[Sta]-OH)
target: Nucleoprotein (Lymphocytic choriomeningitis virus (strain Armstrong)) (UniProt P09992)
category-label: inactive
//
compound: CC(C)OC(=O)c1cc2c(OCC(O)CNC(C)(C)C)cccc2[nH]1 (stereo unspecified)
target: Nucleoprotein (Lymphocytic choriomeningitis virus (strain Armstrong)) (UniProt P09992)
category-label: inactive
//
compound: CCCOC(=O)c1ccc(N)cc1
target: Nucleoprotein (Lymphocytic choriomeningitis virus (strain Armstrong)) (UniProt P09992)
category-label: inactive
//
compound: Oc1c(Br)cc(Br)cc1Br
target: Nucleoprotein (Lymphocytic choriomeningitis virus (strain Armstrong)) (UniProt P09992)
category-label: inactive
//
compound: Cc1c(N)cccc1C(F)(F)F
target: Nucleoprotein (Lymphocytic choriomeningitis virus (strain Armstrong)) (UniProt P09992)
category-label: inactive
//
compound: O=C(O)Cc1ccc2c(c1)C(=O)c1ccccc1CO2
target: Nucleoprotein (Lymphocytic choriomeningitis virus (strain Armstrong)) (UniProt P09992)
category-label: inactive
//
compound: Clc1ccc(C(Cn2ccnc2)OCc2c(Cl)cccc2Cl)c(Cl)c1 (stereo unspecified)
target: Nucleoprotein (Lymphocytic choriomeningitis virus (strain Armstrong)) (UniProt P09992)
category-label: inactive
//
compound: CC(C(=O)O)c1ccc2c(c1)Cc1cccnc1O2 (stereo unspecified)
target: Nucleoprotein (Lymphocytic choriomeningitis virus (strain Armstrong)) (UniProt P09992)
category-label: inactive
//
compound: CCCCNc1ccc(C(=O)OCCN(CC)CC)cc1
target: Nucleoprotein (Lymphocytic choriomeningitis virus (strain Armstrong)) (UniProt P09992)
category-label: inactive
//
compound: Cc1ccc(/C=N/n2c(-c3ccccc3)csc2=S)cc1
target: Nucleoprotein (Lymphocytic choriomeningitis virus (strain Armstrong)) (UniProt P09992)
category-label: inactive
//
compound: ClCc1cccc(Cl)c1
target: Nucleoprotein (Lymphocytic choriomeningitis virus (strain Armstrong)) (UniProt P09992)
category-label: inactive
//
compound: CC1CC(=O)NN=C1c1ccc(NCC(C)(C)NCC(O)COc2cc(Cl)ccc2C#N)cc1 (stereo unspecified)
target: Nucleoprotein (Lymphocytic choriomeningitis virus (strain Armstrong)) (UniProt P09992)
category-label: inactive
//
compound: COc1cc2c(cc1OC)C(C(C(=O)N(CCc1ccc(OC)c(OC)c1OC)CCc1ccc(OC)c(OC)c1OC)c1ccccc1)=NCC2 (stereo unspecified)
target: Nucleoprotein (Lymphocytic choriomeningitis virus (strain Armstrong)) (UniProt P09992)
category-label: inactive
//
compound: CN(C)CCCN1c2ccccc2Sc2ccc(C(F)(F)F)cc21
target: Nucleoprotein (Lymphocytic choriomeningitis virus (strain Armstrong)) (UniProt P09992)
category-label: inactive
//
compound: COc1ccnc2c1CCCCC2S(=O)c1nc2ccccc2[nH]1 (stereo unspecified)
target: Nucleoprotein (Lymphocytic choriomeningitis virus (strain Armstrong)) (UniProt P09992)
category-label: inactive
//
compound: NC(N)=NCCC[C@H](N)C(=O)O
target: Nucleoprotein (Lymphocytic choriomeningitis virus (strain Armstrong)) (UniProt P09992)
category-label: inactive
//
compound: CCOC(=O)[C@@](C)(N)Cc1ccc(O)c(O)c1
target: Nucleoprotein (Lymphocytic choriomeningitis virus (strain Armstrong)) (UniProt P09992)
category-label: inactive
//
compound: C[C@]12CC[C@@H]3c4ccc(O)cc4CC[C@H]3[C@@H]1C[C@@H](O)[C@@H]2O
target: Nucleoprotein (Lymphocytic choriomeningitis virus (strain Armstrong)) (UniProt P09992)
category-label: inactive
//
compound: CC(C)Cc1ccc(C(C)C(=O)OCc2ccccn2)cc1 (stereo unspecified)
target: Nucleoprotein (Lymphocytic choriomeningitis virus (strain Armstrong)) (UniProt P09992)
category-label: inactive
//
compound: CCN(CCCc1ccccc1)CCCc1ccccc1
target: Nucleoprotein (Lymphocytic choriomeningitis virus (strain Armstrong)) (UniProt P09992)
category-label: inactive
//
compound: C#C[C@]1(OC(C)=O)CC[C@H]2[C@@H]3CCC4=C[C@@H](OC(C)=O)CC[C@@H]4[C@H]3CC[C@@]21C
target: Nucleoprotein (Lymphocytic choriomeningitis virus (strain Armstrong)) (UniProt P09992)
category-label: inactive
//
compound: C=C1c2cccc(O)c2C(O)=C2C(=O)[C@]3(O)C(O)=C(C(N)=O)C(=O)[C@@H](N(C)C)[C@@H]3[C@@H](O)[C@H]12
target: Nucleoprotein (Lymphocytic choriomeningitis virus (strain Armstrong)) (UniProt P09992)
category-label: inactive
//
compound: Fc1ccc(C(c2ccc(F)cc2)N2CCNCC2)cc1
target: Nucleoprotein (Lymphocytic choriomeningitis virus (strain Armstrong)) (UniProt P09992)
category-label: inactive
//
compound: CCOC(=O)c1ncn2c1CN(C)C(=O)c1c(I)cccc1-2
target: Nucleoprotein (Lymphocytic choriomeningitis virus (strain Armstrong)) (UniProt P09992)
category-label: inactive
//
compound: C[C@H](N)[C@H](O)c1cccc(O)c1
target: Nucleoprotein (Lymphocytic choriomeningitis virus (strain Armstrong)) (UniProt P09992)
category-label: inactive
//
compound: Cc1ncc2n1-c1ccc(Cl)cc1C(c1ccccc1F)=NC2
target: Nucleoprotein (Lymphocytic choriomeningitis virus (strain Armstrong)) (UniProt P09992)
category-label: inactive
//
compound: CN1CCN(CCC(=O)N2c3ccccc3Sc3ccc(C(F)(F)F)cc32)CC1
target: Nucleoprotein (Lymphocytic choriomeningitis virus (strain Armstrong)) (UniProt P09992)
category-label: inactive
